System: KM12 colon
experiment_notes: NCI-60 one-dose screen, 48 h
condition_info: 10 µM unless noted
This is part of a sample that, as a whole, favours compounds with a hit. Of some 83,000 tested, about 20% had one in any assay. Calls of active or inactive are those of the source. The calls were made as follows: active = growth percent below 10; inactive = the rest.
Would you mind answering with one of these outcomes? yes (1) = active, no (0) = inactive

Data request: Field: outcome | Entry: COc1cc(/C=C2\C(=O)N(CCCCn3c4ccccc4c(=O)c4ccccc43)c3ccccc32)cc(OC)c1O
Data returned: no (0)

Data request: Which result was noted for this compound in the test: CN(C)C(=O)c1cc2cnc(Nc3ccc(-c4csc5c(=S)cc(N6CCOCC6)oc45)cc3)nc2n1C1CCCC1
Data returned: yes (1)

Data request: # lookup: test call for COc1ccc(/C=C2\COc3ccc(O)c(O)c3C2=O)c(OC)c1OC
Data returned: no (0)

Data request: Query: recorded result category for CCCCn1c(C(=O)c2c[nH]c3ccccc23)n[nH]c1=S in this test
Data returned: no (0)

Data request: Could you check what this test reported for COC(=O)c1c2c(c(C)[n+]([O-])c1C)C(=O)C(NCCN1CCOCC1)=CC2=O ?
Data returned: no (0)

Data request: What was the test verdict on CCOC(=O)C1=C(C)N=C2SC=C(c3ccc(F)cc3)N2[C@H]1c1cn(-c2ccccc2)nc1-c1ccc(Cl)cc1 ?
Data returned: no (0)

Data request: Called result for CC1(Cc2ccccc2)CC2=C(C(=O)O1)C(c1ccccc1)NC(=O)N2 (stereo unspecified)
Data returned: no (0)

Data request: Lab log entry: O=C(CCCOc1ccc(Br)cc1)Nc1ncc(Cc2ccc(F)cc2)s1 — outcome as called in the assay?
Data returned: no (0)

Data request: Look up the recorded call for COC1/C=C/OC2(C)Oc3c(C)c(O)c4c(O)c(c(C=NOC(c5ccccc5)c5ccccc5)c(O)c4c3C2=O)NC(=O)/C(C)=C/C=C/C(C)C(O)C(C)C(O)C(C)C(OC(C)=O)C1C (stereo unspecified) in this test.
Data returned: yes (1)

Data request: What was the test verdict on O=[N+]([O-])c1cc(C(F)(F)F)ccc1Sc1ccc(C(F)(F)F)cc1[N+](=O)[O-] ?
Data returned: no (0)

Data request: Outcome logged for O=c1cc(N/N=C/c2ccc(F)cc2)c2cc(Cl)ccc2[nH]1 in this assay:
Data returned: no (0)

Data request: Test call, this compound: O=C1C(N2CCOCC2)=C(I)C(=O)c2ncccc21
Data returned: no (0)

Data request: What call does the record list for C=C(C)[C@@H]1CC[C@]2(C(=O)N3CCN(C)CC3)CC[C@]3(C)[C@H](CC[C@@H]4[C@@]5(C)CC(CCCNC(C)=O)(CCCNC(C)=O)[C@H](OC(C)=O)C(C)(C)[C@@H]5CC[C@]43C)[C@@H]12 ?
Data returned: no (0)

Data request: Recorded test call requested for Cc1nc2cccc(NCCCCC(=O)NO)c2c(=O)n1-c1ccccc1
Data returned: no (0)

Data request: For this compound, state the assay outcome: Cc1cnc(C(=O)NNc2nc3sc4c(c3c(=O)[nH]2)C(C)CCC4)cn1 (stereo unspecified)
Data returned: no (0)

Data request: For O=C1/C(=C/c2ccc(-c3cccc(C(F)(F)F)c3)o2)SC(=S)N1CCc1ccc(O)cc1 , what call appears in the results of this test?
Data returned: no (0)

Data request: Write down the call the test reported for this compound. Item: CCCCCCCCCCCCC[C@H](O)C[C@H](O)[C@H](C)N
Data returned: no (0)

Data request: Would you mind telling me which call this test gave COc1cccc(NC(=O)c2sc3nc(C)c(C(O)c4ccccc4)cc3c2N)c1 (stereo unspecified) ?
Data returned: no (0)

Data request: Called result for CCCCCCCC/C=C\CCCCCCCCOc1ccccc1CC(=O)NCC[N+]1(C)CCOCC1
Data returned: no (0)

Data request: I'd appreciate the recorded outcome for CCOC(=O)CCCn1c(-c2ccccc2)cc(-c2ccccc2)c(C#N)c1=O from this test.
Data returned: no (0)

Data request: What classification did Cc1ccc2[nH]c(=S)[nH]c(=O)c2c1 end up with in this test?
Data returned: no (0)

Data request: Outcome logged for Fc1ccccc1-c1cnn2cc(-c3ccccc3)cnc12 in this assay:
Data returned: no (0)

Data request: Entry Cc1cccc(Cc2cnc(NC(=O)CCCOc3ccc(Cl)cc3)s2)c1 : call = ?
Data returned: no (0)

Data request: // return assay outcome for Nc1nc(CSc2n[nH]c(N)n2)nc(Nc2ccccc2)n1
Data returned: no (0)

Data request: What classification did COc1ccc(-c2cc3cnc4ccccc4c3oc2=O)cc1 end up with in this test?
Data returned: no (0)

Data request: For O=C1c2cc3c(cc2-c2c1c1ccc(Cl)cc1c(=O)n2CCCn1ccnc1)OCO3 , what call appears in the results of this test?
Data returned: yes (1)

Data request: Look up the recorded call for Cc1ccc(C(=O)Nc2ccc(CN3CCN(C)CC3)c(C(F)(F)F)c2)cc1C#Cc1cnc(N)cc1C#N in this test.
Data returned: yes (1)

Data request: Query: recorded result category for O=C(Nc1ccc2ccccc2c1)c1cc2ccccc2cc1O in this test
Data returned: yes (1)

Data request: For NC(N)=NC(N)=NCCCc1ccco1 , what call appears in the results of this test?
Data returned: no (0)

Data request: Recorded test outcome, item N=c1ccccn1CCO
Data returned: no (0)

Data request: Which outcome did this test record for the compound CN1Cn2c(ccc2C(F)(F)F)C(=O)CS1(=O)=O ?
Data returned: no (0)

Data request: Record request — test call for CC(=O)N1N=C(c2ccc(Nc3nc(Nc4ccc(F)cc4)nc(Nc4ccc(F)cc4)n3)cc2)CC1c1ccccc1 (stereo unspecified)
Data returned: no (0)

Data request: Hi team, can someone confirm the assay call for NC1=CC(=O)c2cccnc2C1=O ?
Data returned: no (0)

Data request: Recorded call for COc1ccc(C2Nc3nc(SC)nc(N)c3N=C3c4ccccc4CCC32)cc1 (stereo unspecified) ?
Data returned: no (0)

Data request: Short answer needed: outcome of this test for Cc1nc2sc(C(=O)Nc3cccc4ncccc34)c(N)c2cc1C(C)O (stereo unspecified) ?
Data returned: no (0)

Data request: Write down the call the test reported for this compound. Item: CC(=NCc1ccccc1)c1ccc(O)cc1O
Data returned: no (0)

Entry source: PubChem BioAssay (NCI)
